assay: yeast display, Sf9 membrane polyspecificity reagent, FACS + sequencing; frameworks hold sequencing errors
assay-metric: polyreactivity (PSR sort gate)

Some sequences with recorded polyreactivity (PSR sort gate):
* QVQLVESGGALVQAGGSLRLSCAASGSIFYWYAMGWYRQAPGKEREFVAGITGRGGSTYYADSVKGRFTISRDNAKNTVYLQMNSLKPEDTAVYYADFVKYGKYYQRYDYWGQGTQVTVSS | high polyreactivity
* QVQLVESGGGLVQLGGSLRLSCAASGSIIFSYAIGWSRQAPWKERELVADNRSSDDDTYYADSVKGRFTISRDNAQNTDYLDMNSLKPEDTGGYYCNADFGYWWDGRRYDYWVQGTQVTVSS | low polyreactivity
* QVQLVESGGGLVQAGGSLRLSCAASGGTFDVYAMGWYRQAPGKERELVAAISIGGSTYYADSVKGRFTISRDNAKNTVSLQMNSLKPEDTAVYYCAADVNSRYSWRRWYAYDYWGQGTQVTVSS | high polyreactivity
* QVQLVESGGGLVQAGGSLRLSCAASGFTFGNYAMGWYRQAPGKERELVAAITRGGSTYYADSVKGRFTISRDNAKNTVYLQMKSLKPEDTAVYYCAARYFFWFRPSEYYYWGQGTQVTVSS | high polyreactivity

Entry QVQLVESGGGLVQAGGSLRLSCAASGFIFGYYAMAWYRQAPGKERELVAAITSGTGTNYADSVKGRFTISRDNAKNTVYLQMNSLKPEDTAVYYCAAYYTWLSEFGYWGQGTQVTVSS ; polyreactivity (PSR sort gate) = low polyreactivity
